- assay.overview: gradient 5% acetonitrile 3 min, to 50% in 2 min, to 85% in 15 min, held 3 min, 100 µL/min
- measurement.context: column: Zorbax Extend-C18 2.1 x 50 mm; eluents: water / acetonitrile, 0.1% formic acid
Catalogue of compounds with associated RP-LC retention time
quantity: RP-LC retention time (s)

> print(dat)
                                    compound  test.value
 1     CSc1cccc(NC(=O)c2nnn(-c3ccccc3)c2C)c1        1060
 2  NS(=O)(=O)c1ccc(NS(=O)(=O)c2cc(-c3noc(C4CCCC4)n3)cs2)cc1         882
 3  O=C(NCc1ccc(Cl)cc1)C1CC(=O)N(c2n[nH]c3cccc(F)c23)C1 (stereo not given)         833
 4  COc1ccc(Cl)cc1NC(=O)Nc1ccccc1NC(=O)c1ccco1         873
 5  COc1ccc(OCC(=O)Nc2ccc3c(c2)CCCN3C(=O)C2CC2)cc1         852
 6  CC(C)CCNS(=O)(=O)c1cc(-c2nc(C(C)(C)C)cs2)cs1        1310
 7  Cc1ccc(-c2cc3n(n2)CCCN(C(=O)C2CCOC2)C3)cc1 (stereo not given)         712
 8  O=C(NC1CCN(c2cc(-c3ccccc3)[nH]n2)CC1)c1ccc(Cl)s1         838
 9  CCc1nc2ccccc2c(=O)n1Cc1noc(C2CC(=O)N(c3ccccc3)C2)n1 (stereo not given)         823
10  O=C(Nc1ccc2c(c1)OCCO2)C1CCCN(C(=O)c2cc(-c3ccccn3)n[nH]2)C1 (stereo not given)         656
11  COc1ccc(NC(=O)Cn2nc3nc(N4CCOCC4)ccn3c2=O)cc1F         602
12  COc1ccc(-n2ccn3cc(-c4ccccc4)nc3c2=O)cc1Cl         873
13  Cc1cc(OC(C)C(=O)N2CCC3(O)CCCCC3C2)c2c3c(c(=O)oc2c1)CCC3 (stereo not given)         820
14  O=C(NCc1cccs1)NC1CC(=O)N(C2CC2)C1 (stereo not given)         589
15  O=C(c1cnc2sc3c(n2c1=O)CCC3)N1CCN(c2ncccn2)CC1         658
16             O=C(NCCc1noc(C2CC2)n1)c1ccco1         664
17  CC(C)C(=O)Nc1ccc2nc(N3CCN(c4cccc(Cl)c4)CC3)cc(C(=O)O)c2c1         883
18  C=CCc1ccccc1OCCn1c(CN(C)C(=O)c2ccco2)nc2ccccc21         702
19     Cc1ncc2c(SCC(=O)Nc3ccc(Br)cc3)ncnc2n1         578
20  CCOC(=O)C1CCN(C(=O)C2c3cc(OC)c(OC)cc3C(=O)N(C)C2c2cccs2)CC1 (stereo not given)         728

###

- assay.overview: gradient 5% acetonitrile 3 min, to 50% in 2 min, to 85% in 15 min, held 3 min, 100 µL/min
- measurement.context: column: Zorbax Extend-C18 2.1 x 50 mm; eluents: water / acetonitrile, 0.1% formic acid
quantity: RP-LC retention time (s)

> print(dat)
                                    compound  test.value
 1  CCc1ccc(Nc2nc(C(=O)NC3CC3)nc3ccccc23)cc1         791
 2  O=C(Cn1cnc(-c2cccs2)cc1=O)NCCOc1ccc(-c2ccco2)nn1         583
 3   CCn1cc(CC(=O)NCc2cc(F)cc(F)c2)c2cccnc21         739
 4   Cc1cc2nc(C)c(=O)n(CC(=O)NCCN(C)C)c2cc1C         583
 5  COc1ccc(-c2cc(N3CCCC(C(=O)Nc4nccs4)C3)ncn2)cc1 (stereo not given)         582
 6        O=C(Nc1cccn2c(C3CCC3)nnc12)c1ccco1         696
 7  COc1ccc(N2C(=O)CC(c3ccc(OC)c(OC)c3)CC2=O)cc1Cl         845
 8  CSc1nnc(-c2nn(C)c3c2CN(C(=O)c2ccc(F)cc2)CC3)n1C         656
 9  COc1ccc(N2CC(c3nc(-c4cccc(Cl)c4)no3)CC2=O)cc1OC (stereo not given)         951
10  Cc1ccc(/C=C/c2nc(-c3ccc4c(c3)oc(=O)n4C)no2)cc1        1110
11  O=C(Nc1ccccc1F)N1CCN(CCn2c(C(F)(F)F)nc3cccnc32)CC1         624
12  O=C(NCC1CCCO1)c1cn(-c2ccccc2)nc1-c1ccccc1 (stereo not given)         916
13  O=C(Cn1c(-c2cccs2)cc2cc(Cl)ccc21)N1CCN(c2ccccn2)CC1         809
14     COc1cc(OC)c(OC)cc1/C=C\c1ccnc2ccccc12         679
15  CS(=O)(=O)CCNCc1nc(-c2ccc3ncnc(Nc4ccc(OCc5cccc(F)c5)c(Cl)c4)c3c2)cs1         717
16  CN1C(=O)CS(=O)(=O)C12CCN(C(=O)c1ccc3c(c1)OCO3)CC2         628
17  CCN1CCN(CCNC(=O)c2cc(-c3ccc(C)cc3)cn2C)CC1         626
18  Cc1ccc(N2CC(c3nc(-c4ccc5c(c4)nc(C)c(=O)n5C4CCCC4)no3)CC2=O)cc1 (stereo not given)        1100
19      O=C(NCc1ccc(F)cc1)c1ccc(-c2ccsc2)nc1         854
20  Cc1cc(NC(=O)C2Oc3ccccc3NC2=O)ccc1Br (stereo not given)         865
